ASSAYED_SYSTEM: BRD4 (BD1+BD2) bromodomain (Homo sapiens (Human))
EXPERIMENT_DESCRIPTION: BRD4 binding inhibition (AlphaScreen, GST-BRD4 vs tetraacetylated histone H4 peptide)
CONDITIONS: GST-BRD4 (BD1+BD2) vs biotinylated acetyl-histone H4 peptide, AlphaScreen; read-out: BRD4 IC50
pIC50: −log10 of the molar value.
ENDPOINT_NAME: pIC50

{"ITEM_SMILES": "Cc1nnc2c(NCCCCNC(=O)[C@@H](NC(=O)OC(C)(C)C)C(C)C)nc3cc(N4C[C@@H](C)O[C@@H](C)C4)ccc3n12", "ASSAYED_SYSTEM": "BRD4 (BD1+BD2) bromodomain (Homo sapiens (Human))", "READOUT_VALUE": 7.72}

(I) COCCOc1ccc2c(c1)nc(NCCCCNC(=O)CCC(C)C)c1nnc(C)n12
(II) COc1cc2c(cc1C)nc(NCCCCNC(=O)[C@@H](O)C(C)C)c1nnc(C)n12
(III) COc1cc2c(cc1C)nc(NCCCCNC(=O)c1ccccc1)c1nnc(C)n12
Problem: Sort entries by pIC50 from minimum to maximum value. Please write the labels in the order that was asked for.
Solution: III, II, I
